# Test system: U-2932
# PROCEDURE_DETAILS: growth inhibition by drug plus 177Lu-lilotomab satetraxetan (1 - RLU/untreated control) (fraction); higher = stronger inhibition
# DETAILS: 10 nM; time (day): 3; 177Lu-lilotomab satetraxetan 1 ug/ml
MEASURED_ATTRIBUTE: growth inhibition by drug plus 177Lu-lilotomab satetraxetan

COMPOUND_SMILES	MEASURED_TARGET	RECORDED_VALUE
Cc1ccc(NC(=O)c2ccc(CN3CCN(C)CC3)cc2)cc1Nc1nccc(-c2cccnc2)n1	U-2932	-0.0306
C[C@]1(c2nc3c(C(N)=O)cccc3[nH]2)CCCN1	U-2932	-0.0353
C[C@@H]1CN(CC(=O)Nc2ccc3c(c2)Cc2cccc(-c4cc(=O)cc(N5CCOCC5)o4)c2S3)C[C@H](C)O1	U-2932	-0.0592
Cc1cc(Nc2cc(N3CCN(C)CC3)nc(Sc3ccc(NC(=O)C4CC4)cc3)n2)n[nH]1	U-2932	-0.00926
CS(=O)(=O)c1cccc(CNc2nc(Nc3ccc4c(c3)CCC(=O)N4)ncc2C(F)(F)F)c1	U-2932	-0.0177
CC[C@@H]1C(=O)N(C)c2cnc(Nc3ccc(C(=O)NC4CCN(C)CC4)cc3OC)nc2N1C1CCCC1	U-2932	0.814
Cn1cnc([N+](=O)[O-])c1Sc1ncnc2[nH]cnc12	U-2932	0.00188
Cc1c(C(=O)Nc2ccc(N3C[C@@H](C)O[C@@H](C)C3)nc2)cccc1-c1ccc(OC(F)(F)F)cc1	U-2932	0.00969
Cc1nc(-c2ccc(OCC(C)C)c(C#N)c2)sc1C(=O)O	U-2932	0.0457
Oc1ccc(Nc2nc(-c3ccc(Cl)cc3)cs2)cc1	U-2932	-0.0159
CCOc1ccc(Cc2cc([C@@H]3O[C@H](CO)[C@@H](O)[C@H](O)[C@H]3O)ccc2Cl)cc1	U-2932	0.0831
Cc1ccc(S(=O)(=O)C=CC#N)cc1	U-2932	0.00206
COc1cc(Nc2ncc(F)c(Nc3ccc4c(n3)N(COP(=O)(O)O)C(=O)C(C)(C)O4)n2)cc(OC)c1OC	U-2932	0.0179
CC[C@@H]1/C=C(\C)C[C@H](C)C[C@H](OC)[C@H]2O[C@@](O)(C(=O)C(=O)N3CCCC[C@H]3C(=O)O[C@H](/C(C)=C/[C@@H]3CC[C@H](Cl)[C@H](OC)C3)[C@H](C)[C@@H](O)CC1=O)[C@H](C)C[C@@H]2OC	U-2932	0.198
O=C1C(Cl)=C(NCCN2CCOCC2)C(=O)c2ncccc21	U-2932	0.114
C[C@H](NC(=O)Cc1cc(F)cc(F)c1)C(=O)N[C@H](C(=O)OC(C)(C)C)c1ccccc1	U-2932	-0.0297

###

# System: U-2932
# PROCEDURE_DETAILS: growth inhibition by drug alone (1 - RLU/untreated control) (fraction); higher = stronger inhibition
# DETAILS: 1000 nM; time (day): 6; 177Lu-lilotomab satetraxetan 0 ug/ml
MEASURED_ATTRIBUTE: growth inhibition by drug alone

>>> print(df.to_string())
                            compound_smiles  measured_target  recorded_value
0  CNC(=O)c1ccc(C)c(-n2c(C)cc(OCc3ccc(F)cc3F)c(Br)c2=O)c1           U-2932           0.195
1     COc1ccc(CCN2CCN(CCCc3ccccc3)CC2)cc1OC           U-2932          -0.298
2  C[C@@H](Oc1cc(-c2cnn(C3CCNCC3)c2)cnc1N)c1c(Cl)ccc(F)c1Cl           U-2932           0.419
3  Nc1nccc(Oc2ccc(NC(=O)c3c[nH]cc(-c4ccc(F)cc4)c3=O)cc2F)c1Cl           U-2932          -0.109
4  CN(C)CCOc1ccc(-c2nc(-c3ccncc3)c(-c3ccc4c(c3)CC/C4=N\O)[nH]2)cc1           U-2932           0.134
